Here, molecules appear alongside Ki reported for the protein given by its sequence in the literature.
Target chain: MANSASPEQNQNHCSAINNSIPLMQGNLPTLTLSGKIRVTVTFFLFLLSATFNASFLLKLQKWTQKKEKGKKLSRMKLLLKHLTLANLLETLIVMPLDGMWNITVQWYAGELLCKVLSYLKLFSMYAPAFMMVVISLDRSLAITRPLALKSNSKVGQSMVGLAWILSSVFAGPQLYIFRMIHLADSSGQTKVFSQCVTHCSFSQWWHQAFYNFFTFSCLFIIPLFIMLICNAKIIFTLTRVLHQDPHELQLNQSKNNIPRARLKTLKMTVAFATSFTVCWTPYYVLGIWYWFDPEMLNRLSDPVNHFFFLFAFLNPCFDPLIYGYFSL
Report the figure in µM without appending any unit label.

Record request: Ki value, item Cc1c(-c2cccc(F)c2)c(=O)n(CCN(C)CCc2ccccn2)c(=O)n1Cc1c(F)cccc1F 1.2

Consider the molecule COc1cccc(-c2c3n(c(=O)n(CC(N)c4ccccc4)c2=O)C(c2ccccc2)CO3)c1 (stereo not drawn) and give its measured Ki. 0.87

Requested read-out: Ki. Entry: COc1cccc(-c2c(C)n(Cc3ccccc3F)c3nc(C(C)(C)C)c(CNCc4ccccn4)n3c2=O)c1 0.03

Ki for Cc1nc(-c2c(C)n(Cc3c(F)cccc3F)c(=O)n(C[C@H](N)c3ccccc3)c2=O)cs1 ? 0.12

Ki lookup needed for Cc1cc2c(cc1Cc1ccc(C(=O)NCc3cccc(CN)c3)o1)C(C)(C)CCC2(C)C , thanks. 0.091

Recorded Ki for COc1cccc(-c2c(C)n(Cc3c(F)cccc3F)c(=O)n(C[C@H](C)N(C)Cc3ccccc3)c2=O)c1 , please? 0.25

Which value of Ki has been reported for COc1cccc(-c2c(C)n(Cc3c(F)cccc3F)c(=O)n(C[C@@H]3CCCN3Cc3ccccn3)c2=O)c1 in the records? 0.21

Given the entry Cc1c(-c2ccc3c(c2)OC(F)(F)O3)c(=O)n(CCN(C)CCc2ccccn2)c(=O)n1Cc1c(F)cccc1F , report its measured Ki. 0.47
